Consider the following compounds; for each one, report its Growth Rate.
- System: Fibroblast
- Method Summary: Incucyte cell viability with human fibroblast; note: unitless GR value; below 1 slowed growth and below 0 cell loss
- Type: toxicity, cell-based
- Assay Setup: 12 h, 10 µM, compound concentration 10 uM, replicate number 2
Give bare numbers.

Examples with their reported Growth Rate follow.
compound=CC(=O)O.NCCCc1c(C(=O)O)[nH]c2ccc(C(=O)Nc3ccccc3)cc12 measurement_label="Growth Rate" reported_value=0.82
compound="O=C(O)Cc1cc(I)c(Oc2ccc(O)c(I)c2)c(I)c1 [TIRATRICOL]" measurement_label="Growth Rate" reported_value=0.55

Please give Growth Rate, item by item, for the list that follows.
1. CCN1CCN(Cc2ccc(Nc3ncc(F)c(-c4cc(F)c5nc(C)n(C(C)C)c5c4)n3)nc2)CC1.CS(=O)(=O)O
2. O=C(NC[C@@H]1[C@H]2CN(C(=O)OCc3cc(C(F)(F)F)cc(C(F)(F)F)c3)C[C@@H]12)c1ccc2[nH]nnc2c1 [BI 2545]
3. N#Cc1ccc(COc2ccc(Br)cc2CNCCO)cn1.O=CO
4. Cc1nccn1-c1ccc(Sc2cccc(C3(C(N)=O)CCOCC3)c2)cc1

**Result**
1. 0.98
2. 0.94
3. 0.87
4. 0.59

Please give Growth Rate, item by item, for the list that follows.
1. COc1cc(-c2cn(C)c(=O)c3cnccc23)c(OC)cc1CN(C)C
2. CCN(C)S(=O)(=O)Nc1cccc(-c2ccc3c(NC(=O)C4CC4)n[nH]c3c2)c1
3. COc1ccc(F)c(F)c1C(=O)c1cnc(NC2CCN(S(C)(=O)=O)CC2)nc1N [RG-547]

**Result**
1: 0.23; 2: -0.25; 3: 0.53
